System: U87MG
Assay: Cellular proliferation assay (Alamar blue), U87MG
Format: cell-based
Conditions: Homo sapiens, U-87 MG, 72 h, U87MG cells, 72 hours with compound, 10% FCS, read-out: pIC50 U87MG (converted)
Description: […] functional properties of these compounds was tested in cellular proliferation assays on a panel of different cell lines in the presence of 10% FCS serum (37° C. and 5% (v/v) CO2). In a first step these cells were seeded and incubated for 24 hours in the absence of compound. In the second step the cells were incubated for 72 hours with the compounds to be tested for 72 hours. The viable cell number was finally assessed in a standard Alamar blue cell viability assay. […]
Property: IC50 (µM)
One number for each entry, in µM.

COc1ccc2cc1OCCCCC(=O)N(C)CCNc1ncnc3c1/C(=C/N2)C(=O)N3 [Compound 45]: 1.66
CN1CCCNc2ncnc3c2/C(=C/Nc2ccc(NC(=O)Nc4ccccc4)c(c2)OCCCC1=O)C(=O)N3 [Compound 158]: 1.23
CN1CCN(c2ccc3cc2CN(C)CCCCCC(=O)N(C)CCNc2ncnc4c2/C(=C/N3)C(=O)N4)CC1 [Compound 126]: 6.31
COc1nc2c3c(n1)NC(=O)/C3=C\Nc1ccc(Cl)c(c1)OCCCCC(=O)N(C)CCCN2 [Compound 111]: 2.69
CN1CCNc2ncnc3c2/C(=C/Nc2cccc(c2)OCCCCCC1=O)C(=O)N3 [Compound 39]: 7.94

Provide reported IC50 for each item, in the same order as listed.
1. CN1CCN(c2ccc3cc2CN(C)CCCCC(=O)N(C)CCCNc2ncnc4c2/C(=C/N3)C(=O)N4)CC1 [Compound 122]
2. CN1CCNc2ncnc3c2/C(=C/Nc2cccc(c2)OCC(=O)N[C@H](Cc2ccccc2)C1)C(=O)N3 [Compound 169]
3. CN1CCCNc2ncnc3c2/C(=C/Nc2cc(cc(C(F)(F)F)c2)OCCCCC1=O)C(=O)N3 [Compound 130]

[out]
1. 0.708
2. 7.41
3. 6.31

====

molecular target: GSK3β (h) (Homo sapiens, UniProt P49841); assay: GSK-3β human kinase assay (SPA); type: biochemical; conditions: read-out: GSK3B pIC50 (converted)
Sequence (P49841 whole entry): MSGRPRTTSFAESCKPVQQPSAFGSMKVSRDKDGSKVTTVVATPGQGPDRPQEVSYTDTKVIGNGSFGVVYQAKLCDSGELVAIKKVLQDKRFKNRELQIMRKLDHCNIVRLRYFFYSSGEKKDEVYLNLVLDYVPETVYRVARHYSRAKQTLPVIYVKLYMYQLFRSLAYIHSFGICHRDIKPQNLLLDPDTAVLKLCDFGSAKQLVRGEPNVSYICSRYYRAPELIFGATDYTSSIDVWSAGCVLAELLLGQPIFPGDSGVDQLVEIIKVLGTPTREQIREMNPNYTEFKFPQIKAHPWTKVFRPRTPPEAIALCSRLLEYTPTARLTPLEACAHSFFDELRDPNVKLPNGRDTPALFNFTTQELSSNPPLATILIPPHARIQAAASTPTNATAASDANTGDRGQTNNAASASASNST
Hi there, I'd appreciate the recorded log10(IC50) for every entry that follows.
Values are log10 of IC50 in nM.

Worked examples, 5 compounds total:
COc1ccc2cc1CN(C)CCCCC(=O)N(C)CCCNc1ncnc3c1/C(=C/N2)C(=O)N3: 2.25
CN1CCNc2ncnc3c2/C(=C/Nc2ccc(Cl)c(c2)OCCCC1=O)C(=O)N3: 2.42
CN1CCN(c2ccc3cc2CN(C)CCCCC(=O)N(C)CCNc2ncnc4c2/C(=C/N3)C(=O)N4)CC1: 3.17
CN1CCNC(=O)CCCOc2cccc(c2)N/C=C2\C(=O)Nc3ncnc(c32)NCC1: 3.46
CN1CCCCC(=O)N(C)CCCNc2ncnc3c2/C(=C/Nc2ccc(N4CCOCC4)c(c2)C1)C(=O)N3: 2.85

Turning now to a further record.
Entry under test: CN1CCCNc2ncnc3c2/C(=C/Nc2cccc(c2)OCCN(C)[C@H](CO)C1=O)C(=O)N3 . Its log10(IC50) was 1.89

====

molecular target: PLK4 (h) (Homo sapiens, UniProt O00444); assay: PLK-4 human kinase assay (SPA); type: biochemical
Sequence (O00444 whole entry): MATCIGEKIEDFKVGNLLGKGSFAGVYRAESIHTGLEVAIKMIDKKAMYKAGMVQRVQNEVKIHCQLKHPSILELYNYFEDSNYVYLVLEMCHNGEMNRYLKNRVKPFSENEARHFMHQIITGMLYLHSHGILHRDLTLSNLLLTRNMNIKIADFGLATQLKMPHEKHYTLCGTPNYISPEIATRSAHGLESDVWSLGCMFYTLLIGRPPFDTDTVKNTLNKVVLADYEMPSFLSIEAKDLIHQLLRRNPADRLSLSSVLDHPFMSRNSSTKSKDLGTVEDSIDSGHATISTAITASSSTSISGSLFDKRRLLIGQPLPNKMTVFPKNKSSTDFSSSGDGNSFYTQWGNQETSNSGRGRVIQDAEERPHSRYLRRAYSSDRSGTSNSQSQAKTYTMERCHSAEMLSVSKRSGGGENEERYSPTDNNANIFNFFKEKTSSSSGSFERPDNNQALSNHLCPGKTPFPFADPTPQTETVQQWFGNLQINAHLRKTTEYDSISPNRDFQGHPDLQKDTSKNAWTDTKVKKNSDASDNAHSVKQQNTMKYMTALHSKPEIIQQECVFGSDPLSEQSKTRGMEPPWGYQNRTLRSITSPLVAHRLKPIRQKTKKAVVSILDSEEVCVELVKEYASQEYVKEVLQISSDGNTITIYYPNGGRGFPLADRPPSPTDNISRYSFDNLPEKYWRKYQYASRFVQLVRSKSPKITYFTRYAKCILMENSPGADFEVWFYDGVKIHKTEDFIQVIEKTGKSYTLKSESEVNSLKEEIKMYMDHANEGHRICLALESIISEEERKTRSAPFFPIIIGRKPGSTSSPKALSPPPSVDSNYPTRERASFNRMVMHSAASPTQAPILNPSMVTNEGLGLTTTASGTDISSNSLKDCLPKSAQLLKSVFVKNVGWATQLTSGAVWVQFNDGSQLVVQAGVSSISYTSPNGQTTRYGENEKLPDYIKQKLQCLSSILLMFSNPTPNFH
Consider the following compounds; for each one, report its PLK4 pIC50.
Give bare numbers.

COc1ccc2cc1CN(C)CCCCCCC(=O)N(C)CCCNc1ncnc3c1C(=CN2)C(=O)N3 (mixture of isomers) [Compound 68]: 5.74

Field: next compound
Kindly note the recorded PLK4 pIC50 for COc1ccc2cc1OCCCC(=O)N(C(C)C)CCCNc1ncnc3c1C(=CN2)C(=O)N3 (mixture of isomers) [Compound 144] , which is 7.03

====

What AuroraB pIC50 was measured for each of the following?
molecular target: UniProtKB Q96GD4; experiment: Aurora-B human kinase assay (SPA); type: biochemical
Sequence (Q96GD4 whole entry): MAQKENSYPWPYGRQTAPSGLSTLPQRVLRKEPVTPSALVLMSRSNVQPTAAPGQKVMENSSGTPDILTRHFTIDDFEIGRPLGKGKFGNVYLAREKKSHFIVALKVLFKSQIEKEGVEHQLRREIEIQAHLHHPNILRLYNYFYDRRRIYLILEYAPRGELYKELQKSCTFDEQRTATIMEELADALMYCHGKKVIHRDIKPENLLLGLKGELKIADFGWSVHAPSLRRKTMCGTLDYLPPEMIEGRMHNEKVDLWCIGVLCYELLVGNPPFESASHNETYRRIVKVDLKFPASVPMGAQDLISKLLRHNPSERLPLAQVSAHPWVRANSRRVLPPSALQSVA
One number for each entry.

CN1CCCNc2ncnc3c2C(=CNc2ccc(N4CCOCC4)c(c2)OCCCC1=O)C(=O)N3 (mixture of isomers): 6.13
CN1CCCN(C)c2ncnc3c2C(=CNc2cccc(c2)OCCCC1=O)C(=O)N3 (mixture of isomers): 5.33
COc1ccc2cc1OCCCCCCC(=O)N(C)CCNc1ncnc3c1C(=CN2)C(=O)N3 (mixture of isomers): 6.28
O=C1CCCOc2cccc(c2)NC=C2C(=O)Nc3ncnc(c32)NCCCN1 (mixture of isomers): 6.93
CN1CCCNc2ncnc3c2C(=CNc2cccc(c2)OCCCCCC1=O)C(=O)N3 (mixture of isomers): 6.15
CN1CCCNc2ncnc3c2C(=CNc2ccc(Cl)c(c2)OCCCC1=O)C(=O)N3 (mixture of isomers): 7.01

Batch: AuroraB pIC50 for all items listed.
1. COc1ccc2cc1OCCCC(=O)NCCCNc1ncnc3c1C(=CN2)C(=O)N3 (mixture of isomers)
2. COc1cc2cc(c1OC)OCCCC(=O)NCCCNc1ncnc3c1C(=CN2)C(=O)N3 (mixture of isomers)
3. CN1CCCN(C)c2ncnc3c2C(=CNc2ccc(Cl)c(c2)OCCCC1=O)C(=O)N3 (mixture of isomers)
4. COc1cc2cc(c1OC)OCCCCC(=O)N(C)CCNc1ncnc3c1C(=CN2)C(=O)N3 (mixture of isomers)
5. CN1CCN(c2ccc3cc2OCCCC(=O)N(C)CCCNc2ncnc4c2C(=CN3)C(=O)N4)CC1 (mixture of isomers)
6. CN1CCCNc2ncnc3c2C(=CNc2cccc(c2)OCCCCC1=O)C(=O)N3 (mixture of isomers)
7. COc1cc2cc(c1OC)OCCCCC(=O)N(C)CCCNc1ncnc3c1C(=CN2)C(=O)N3 (mixture of isomers)

[out]
1. 7.24
2. 6.6
3. 5.47
4. 5.26
5. 5.81
6. 6.8
7. 6.59

====

Kindly supply the reported IC50 values for the records listed here.
target: CDK1/CyclinB (h) (Homo sapiens); assay: CDK1/CyclinB human kinase assay (FRET); format: biochemical; details: read-out: CDK1 pIC50 (converted)
Sequence (P06493 whole entry): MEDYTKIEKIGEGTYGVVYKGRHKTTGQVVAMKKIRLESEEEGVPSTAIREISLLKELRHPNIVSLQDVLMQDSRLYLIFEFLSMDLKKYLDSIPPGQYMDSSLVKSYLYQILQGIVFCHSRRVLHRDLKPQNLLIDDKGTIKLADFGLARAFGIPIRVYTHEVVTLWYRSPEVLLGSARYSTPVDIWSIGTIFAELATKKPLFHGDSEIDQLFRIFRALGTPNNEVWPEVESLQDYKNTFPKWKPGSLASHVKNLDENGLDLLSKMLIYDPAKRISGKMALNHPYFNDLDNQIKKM
Sequence (P14635 whole entry partner): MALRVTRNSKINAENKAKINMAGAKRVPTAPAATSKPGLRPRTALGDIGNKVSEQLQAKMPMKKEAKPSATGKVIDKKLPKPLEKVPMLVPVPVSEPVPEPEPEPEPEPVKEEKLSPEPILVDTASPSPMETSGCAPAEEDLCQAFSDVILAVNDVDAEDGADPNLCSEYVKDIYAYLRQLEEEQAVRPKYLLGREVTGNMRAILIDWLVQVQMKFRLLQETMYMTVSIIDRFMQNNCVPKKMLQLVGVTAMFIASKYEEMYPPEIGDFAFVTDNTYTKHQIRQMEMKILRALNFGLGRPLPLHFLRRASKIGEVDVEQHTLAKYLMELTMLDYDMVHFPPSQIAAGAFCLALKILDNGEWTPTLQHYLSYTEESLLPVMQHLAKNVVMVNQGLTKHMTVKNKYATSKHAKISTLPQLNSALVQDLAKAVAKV

Hey, quick one: what's IC50 for each of these?
1. CN1CCNC(=O)CCCCCOc2cc(ccc2Cl)N/C=C2\C(=O)Nc3ncnc1c32 [Compound 52]
2. COc1cc2cc(c1OC)CN(C)CCCCC(=O)N(C)CCNc1ncnc3c1/C(=C/N2)C(=O)N3 [Compound 119]
3. CN1CCNC(=O)CCCOc2cc(ccc2Cl)N/C=C2\C(=O)Nc3ncnc1c32 [Compound 55]

[out]
1: > 10 µM; 2: 6.31 µM; 3: > 10 µM

====

target: PLK4 (h) (Homo sapiens); test: PLK-4 human kinase assay (SPA); assay type: biochemical; conditions: read-out: PLK4 pIC50 (converted)
Kindly state IC50 for each of the entries shown.
Give bare numbers, in µM.

COc1ccc2cc1OCCCC(=O)N(C(C)C)CCN(C)c1ncnc3c1/C(=C/N2)C(=O)N3: 1.05
COc1cc2cc(c1OC)OCCCC(=O)N(C)CCCNc1ncnc3c1/C(=C/N2)C(=O)N3: 0.105
CN1CCCCCC(=O)N(C)CCCNc2ncnc3c2/C(=C/Nc2cccc(c2)C1)C(=O)N3: 1.07
CN1CCCCCC(=O)N(C)CCNc2ncnc3c2/C(=C/Nc2ccc(N4CCOCC4)c(c2)C1)C(=O)N3: 0.452
CN1CCN(c2ccc3cc2OCCCCCC(=O)N(C)CCNc2ncnc4c2/C(=C/N3)C(=O)N4)CC1: 0.692
C[C@@H]1CN(C)CCCNc2ncnc3c2/C(=C/Nc2cccc(c2)OCC(=O)N1)C(=O)N3: 0.417

For the 6 compounds below, give their IC50 values.
1. CN1CCCNc2ncnc3c2/C(=C/Nc2cccc(c2)OCC(=O)N[C@H](Cc2ccccc2)C1)C(=O)N3
2. CN1CCN(c2ccc3cc2CN(C)CCCC(=O)N(C)CCNc2ncnc4c2/C(=C/N3)C(=O)N4)CC1
3. CN1CCNC(=O)CCCOc2cccc(c2)N/C=C2\C(=O)Nc3ncnc(c32)NCC1
4. CN1CCN(c2ccc3cc2CN(C)CCCCCC(=O)N(C)CCNc2ncnc4c2/C(=C/N3)C(=O)N4)CC1
5. CN1CCNc2ncnc3c2/C(=C/Nc2cccc(c2)OCCCCCCC1=O)C(=O)N3
6. COc1ccc2cc1CN(C)CC(=O)N(C)CCCCNc1ncnc3c1/C(=C/N2)C(=O)N3

[out]
0.468
5.89
4.37
0.676
4.37
2.57

====

test system: U87MG; assay: Cellular proliferation assay (Alamar blue), U87MG; format: cell-based; conditions: Homo sapiens, U-87 MG, 72 h, U87MG cells, 72 hours with compound, 10% FCS, read-out: pIC50 U87MG (converted)
Answer each item with its documented IC50.

CN1CCNC(=O)CCCCCOc2cc(ccc2Cl)N/C=C2\C(=O)Nc3ncnc1c32 [Compound 52]: 7.24 µM
CN1CCNC(=O)CCCCOc2cccc(c2)N/C=C2\C(=O)Nc3ncnc1c32 [Compound 43]: > 10 µM
CN1CCNc2ncnc3c2/C(=C/Nc2cccc(c2)OCCCCC1=O)C(=O)N3 [Compound 42]: > 10 µM
COc1cc2cc(c1OC)CN(C)CC(=O)N(C)CCCCNc1ncnc3c1/C(=C/N2)C(=O)N3 [Compound 152]: > 10 µM
COc1cc2cc(c1OC)CN(C)CC(=O)N(C)CCN(C)CCNc1ncnc3c1/C(=C/N2)C(=O)N3 [Compound 155]: > 10 µM
CN1CCN(c2ccc3cc2CN(C)CCCC(=O)N(C)CCNc2ncnc4c2/C(=C/N3)C(=O)N4)CC1 [Compound 116]: 3.24 µM
CN1CCCNc2ncnc3c2/C(=C/Nc2cccc(c2)OCCCCCCC1=O)C(=O)N3 [Compound 69]: > 10 µM

Please look at the following compound next.
IC50 recorded for this compound, COc1ccc2cc1CN(C)CCCCCCC(=O)NCCN(C)c1ncnc3c1/C(=C/N2)C(=O)N3 [Compound 50] , is > 10 µM
